test system: 7,8-diaminopelargonic acid synthase BioA (Mycobacterium tuberculosis); assay: M. tuberculosis BioA enzyme inhibitors, primary screen, biochemical, plate reader, single point, HTS (AID 602481); details: purified M. tuberculosis BioA enzyme, at 9.99 µM, hits give high values
About 340 (0.094%) of roughly 360,000 compounds were called active. The list comes from a sample in which actives are over-represented; it also holds close analogues and randomly drawn compounds.
This listing pairs molecules with measured inhibition.

| structure.notation | assay.target | inhibition / % |
| --- | --- | --- |
| CC(C)NC(=O)N1CCCCN2[C@@H](CO)[C@@H](c3ccc(C#C[C@@H](C)O)cc3)[C@@H]2C1 | 7,8-diaminopelargonic acid synthase BioA (Mycobacterium tuberculosis) | 2.83 |
| CCCC(=O)Nc1ccc2c(c1)OC[C@@H](C)N(Cc1ccccc1F)C[C@@H](C)[C@H](OC)CN(C)C2=O | 7,8-diaminopelargonic acid synthase BioA (Mycobacterium tuberculosis) | -3.54 |
| CCCNC(=O)C[C@@H]1CC[C@H]2[C@H](COc3ccc(NS(=O)(=O)c4ccccc4C)cc3C(=O)N2C)O1 | 7,8-diaminopelargonic acid synthase BioA (Mycobacterium tuberculosis) | 1.74 |
| CC(=O)N[C@@H]1C=C[C@H](CC(=O)NCC2CCCCC2)O[C@H]1CO | 7,8-diaminopelargonic acid synthase BioA (Mycobacterium tuberculosis) | -0.006 |

----------
This listing pairs molecules with measured inhibition.
test system: 7,8-diaminopelargonic acid synthase BioA (Mycobacterium tuberculosis); assay: M. tuberculosis BioA enzyme inhibitors, primary screen, biochemical, plate reader, single point, HTS (AID 602481); details: purified M. tuberculosis BioA enzyme, at 9.99 µM, hits give high values
Hit rate of the full screen: of about 360,000 compounds, about 340 (0.094%) were called active. This is one part of a sample in which actives are shown more often than they occur.

| structure.notation | inhibition [%] |
| --- | --- |
| Cc1ccc(S(=O)(=O)N[C@H]2C=C[C@@H](CC(=O)NCCc3ccncc3)O[C@@H]2CO)cc1 | 2.21 |
| CCCN1[C@H](C(=O)N2CCOCC2)[C@@H](CO)[C@@H]2Cn3c(ccc(/C=C/c4ccccc4)c3=O)[C@@H]21 | -3.1 |
| CN1C(=O)c2cc(NC(=O)Nc3ccccc3F)ccc2OC[C@H]2O[C@@H](CC(=O)Nc3cccc(Cl)c3)CC[C@@H]21 | 4.99 |
| CN(C)C(=O)C[C@H]1C=C[C@@H](NC(=O)c2ccc(F)cc2)[C@@H](CO)O1 | -0.406 |
| Cc1noc(C)c1NC(=O)Nc1ccc2c(c1)CC(=O)N([C@@H](C)CO)C[C@H](C)[C@H](CN(C)S(=O)(=O)c1c(C)noc1C)O2 | 1.52 |
| CS(=O)(=O)N1[C@H](C(=O)NCc2ccncc2)[C@@H](CO)[C@@H]2Cn3c(ccc(C4=CCCCC4)c3=O)[C@@H]21 | 49 |
| CCCN1[C@H](C(=O)NCC)[C@@H](CO)[C@@H]2Cn3c(ccc(C4=CCCC4)c3=O)[C@@H]21 | -0.389 |
| O=C(Cc1ccccc1)N1C[C@H]2[C@@H](c3ccccc31)[C@H](CO)N2C(=O)C1CCOCC1 | -4.05 |
| COc1ccccc1-c1n[nH]nc1C1=CC(=O)CC(C)(C)C1 | -1.72 |
| COc1ccc2c3c(c(=O)oc2c1OCC(=O)C(C)(C)C)CCCC3 | 0.336 |
| CCCOc1ccc2c3c(c(=O)oc2c1OCCC)CCC3 | 49.3 |
| O=C(Nc1cccc(F)c1)N1CCCCN2[C@H](CO)[C@H](c3ccc(C#CC4CC4)cc3)[C@@H]2C1 | 10.9 |
| CCC(=O)Nc1ccc2c(c1)OC[C@@H](C)N(Cc1ccccn1)C[C@H](C)[C@@H](OC)CN(C)C2=O | 0.9 |
| O=c1oc2c(CN3CCCCC3)c(O)ccc2c2c1CCCCC2 | 16.6 |
| C[C@@H]1CN([C@@H](C)CO)C(=O)c2c(c3ccccc3n2C)-c2ccccc2CO[C@H]1CN(C)S(=O)(=O)c1cccs1 | -2.08 |
| COc1ccc(NC(=O)Nc2ccc3c(c2)[C@H]2C[C@H](CC(=O)NC4CCCCC4)O[C@H](CO)[C@H]2O3)cc1 | 0.43 |
| CC(C)NC(=O)Nc1ccc2c(c1)C(=O)N([C@H](C)CO)C[C@H](C)[C@@H](CN(C)S(C)(=O)=O)OCCCC[C@@H](C)O2 | -1.93 |
